# IC50 per entry
assaySystem: KRAS G12D (Homo sapiens, UniProt P01116+P62937, G12D)
Sequence (P01116 1-169 isoform P01116-2 G12D limits assumed): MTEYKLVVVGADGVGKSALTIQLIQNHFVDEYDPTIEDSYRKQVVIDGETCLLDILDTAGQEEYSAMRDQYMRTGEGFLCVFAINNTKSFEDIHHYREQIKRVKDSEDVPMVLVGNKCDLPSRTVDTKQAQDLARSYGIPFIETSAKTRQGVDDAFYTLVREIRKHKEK
Sequence (P62937 whole entry): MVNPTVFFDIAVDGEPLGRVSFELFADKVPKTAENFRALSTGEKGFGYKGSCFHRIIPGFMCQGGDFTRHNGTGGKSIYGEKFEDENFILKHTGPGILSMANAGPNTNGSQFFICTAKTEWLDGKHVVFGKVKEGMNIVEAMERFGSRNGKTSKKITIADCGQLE
testDetails: Ras-Raf disruption/FRET/MOA assay, KRAS G12D
Format: biochemical
experimentalContext: disruption of BRAF RBD binding, with Cyclophilin A; read-out: KRAS G12D FRET IC50
Source text: Disruption of B-Raf Ras-Binding Domain (BRAF^RBD) Interaction with K-Ras by Compounds of the Invention (Also Called a FRET Assay or an MOA Assay) Note—The following protocol describes a procedure for monitoring disruption of K-Ras G12C (GMP-PNP) binding to BRAF^RBD by a compound of the invention. This protocol may also be executed substituting other Ras proteins or nucleotides, such as K-Ras G12D and K-Ras G13D. […]

In: Item under review: CCn1c(-c2cccnc2[C@H](C)OC)c2c3cc(ccc31)-c1cc(O)cc(c1)C[C@H](NC(=O)[C@H](C1CCCC1)N1CC[C@@]3(CCN(C(=O)[C@@H]4N[C@@H]4C4CC4)C3)C1=O)C(=O)N1CCC[C@H](N1)C(=O)OCC(C)(C)C2 [Compound 215] . Reported IC50?
Out: 0.1 to 1 µM

In: Same question, CCn1c(-c2cccnc2[C@H](C)OC)c2c3cc(ccc31)-c1cc(O)cc(c1)C[C@H](NC(=O)[C@H](C(C)C)N1CO[C@@]3(CCN(C(=O)[C@H]4CN4)C3)C1=O)C(=O)N1CCC[C@H](N1)C(=O)OCC(C)(C)C2 [Compound 232] this time
Out: 1 to 10 µM

In: Queued: CCn1c(-c2cccnc2[C@H](C)OC)c2c3cc(ccc31)-c1cc(O)cc(c1)C[C@H](NC(=O)[C@H](C(C)C)N1CC[C@]3(CCN(C[C@@H]4CN4)C3)C1=O)C(=O)N1CCC[C@H](N1)C(=O)OCC(C)(C)C2 [Compound 176]
Out: 0.1 to 1 µM

In: Same read-out for CCn1c(-c2cccnc2[C@H](C)OC)c2c3cc(ccc31)-c1cc(O)cc(c1)C[C@H](NC(=O)[C@H](C(C)C)N1CC[C@]3(CCCN(C(=O)[C@@H]4CN4)C3)C1=O)C(=O)N1CCC[C@H](N1)C(=O)OCC(C)(C)C2 [Compound 192] ?
Out: 0.1 to 1 µM

In: Could you do the same for CCn1c(-c2cnccc2COC)c2c3cc(ccc31)-c1cc(O)cc(c1)C[C@H](NC(=O)[C@H](C(C)C)N(C)C(=O)[C@H]1CCN(C(=O)N3C[C@@H]3C(=O)OC)C1)C(=O)N1CCC[C@H](N1)C(=O)OCC(C)(C)C2 [Compound 94] , please?
Out: 1 to 10 µM

Data provenance: patent US11739074B2
